- Test system: MDA-MB-468 breast
- Assay summary: NCI-60 one-dose screen, 48 h
- Recorded conditions: 10 µM unless noted
Compounds without any hit were thinned out: in the full panel of roughly 83,000, 20% have a hit. The source made the active and inactive calls. How the source made its calls: active means growth percent below 10; inactive means the rest.
Tick one outcome: 1 for active, -1 for inactive

Reference set, count: 5
N=C(c1ccccc1)N(Cc1ccccc1)Cc1ccccc1 = -1
CC(=O)c1ccc(N2C(=O)c3ccc(Oc4ccccc4)cc3C2=O)cc1 = -1
Cc1ncc(C#N)c(N)n1 = -1
O=C(CC(=O)C(F)(F)C(F)(F)C(F)(F)F)c1cc2ccccc2o1 = -1
O=c1c2cc(F)cc(Cl)c2sc2c(NCCCNCCO)nc3ccccc3c12 = -1

Check the results log: what was the call for CCCCCc1ccc(S(=O)(=O)Nc2cc(-c3csc(NC(=O)CN4CCN(C)CC4)n3)ccc2OC)cc1 ?
-1

Try the compound Cc1c[n+](Cc2ccc3ccccc3c2)cn1Cc1ccc2ccccc2c1
1

###

- Test system: MDA-MB-468 breast
- Assay summary: NCI-60 one-dose screen, 48 h
- Recorded conditions: 10 µM unless noted
- Description: Growth inhibition of the MDA-MB-468 human Breast tumor cell line is measured as a screen for anti-cancer activity. Cells are grown in 96 well plates and exposed to the test compound for 48 hours. Compounds are tested at a single concentration, which is 10^-5 M for most compounds. The reported endpoint is percent growth (GI% or GIPRCNT), where numbers from 0 - 100% represent growth inhibition, and numbers from -100% - 0 represent cell death. […]
The panel holds about 83,000 compounds, 20% with a hit somewhere; the sample as a whole holds those more often. Activity calls are given as the source filed them. The calls were made as follows: active = growth percent below 10; inactive = the rest.
API: response.call in active, inactive

CN1CCN(CCCOc2ccc3nc(Nc4ccc(Cl)c(C(F)(F)F)c4)ccc3c2)CC1 = inactive
O=c1cc(-c2ccc(OCc3ccccc3)cc2)oc2c(I)c(OCc3ccccc3)cc(OCc3ccccc3)c12 = inactive
COC(=O)CNC(=O)C(=O)c1c(O)c(O)c(C(C)C)c2cc(C)c(-c3c(C)cc4c(C(C)C)c(O)c(O)c(C(=O)C(=O)NCC(=O)OC)c4c3O)c(O)c12 = inactive

Test call, this compound: COc1ccc(/C=C2\N=C(c3ccccc3)N(c3cc(OC)c(OC)cc3C(=O)N3N=C(C)CC3=O)C2=O)cc1
inactive

Moving on to the next compound: N#Cc1nc(-c2ccccc2)oc1S(=O)(=O)N1CCCCC1
inactive

###

- Test system: ACHN renal
- Assay summary: NCI-60 one-dose screen, 48 h (100 = growth as untreated, 0 = no growth, -100 = all killed)
- Recorded conditions: 10 µM
- Method: Growth inhibition of the ACHN human tumor cell line is measured as a screen for anti-cancer activity. Cells are grown in 96 well plates and exposed to the test compound for 48 hours. Compounds are tested at a single concentration, which is 10^-5 M for most compounds. The reported endpoint is percent growth (GI% or GIPRCNT), where numbers from 0 - 100% represent growth inhibition, and numbers from -100% - 0 represent cell death. For example, a value of 40 represents 60% growth inhibition. […]
The panel holds about 83,000 compounds, 20% with a hit somewhere; the sample as a whole holds those more often.
Met if growth is below 20%. Not met if not; exact matches included in Not met.

O=C(CC(=O)Nc1ccc(Oc2ncnc3scc(Nc4n[nH]c(=S)s4)c23)cc1)Nc1ccc(Br)cc1 = Not met
O=C(CN1CCN(c2ncnc3c2cnn3-c2ccccc2)CC1)Nc1ccc(Br)cc1 = Met
Cc1cc(N=C2NC(=O)/C(=C/c3cc(C(C)(C)C)c(O)c(C(C)(C)C)c3)S2)n[nH]1 = Met
COc1ccc2[nH]cc(-c3nc(N)nnc3-c3cn(C)c4ncc(Br)cc34)c2c1 = Met
COc1ccc(Cn2cc(C#N)c(N)c2C(C)=O)c(OC)c1 = Not met
C#CCOc1cc(N(CC)CC)ccc1C(C(=O)NC(C)(C)C)N(C(=O)C1CCc2cc(F)ccc2O1)c1ccc(F)cc1F (centres undefined) = Not met

Confirm or reject: growth of CCOC(=O)C1=C(N)N(c2ccc(C)cc2)C2=C(C(=O)CC(C)(C)C2)C1c1ccccc1Br (centres undefined) lies strictly below 20%
Not met

Moving on to Cc1ccc2c(c1)C(=O)/C(=C/c1c[nH]c3ccccc13)S2
Not met

Repeat with Cc1ccc2sc3c(c2c1)Oc1nc[nH]c(=O)c1C3c1cccc(F)c1 (centres undefined)
Not met

Each recorded value in this set is attributed to PubChem BioAssay (NCI).
